# protocol: Bioavailability determination in mice
# Type: in vivo
# conditionSet: mouse, whole blood, 30 mg/kg; male C57BL/6 mice
readoutLabel: bioavailability

The reported value for COc1cc(/C=C/C(=O)NCCc2ccc(O)cc2)ccc1O [N-trans-feruloyltyramine] in terms of bioavailability is ~7%
